- testTarget: serotonin transporter (Rattus norvegicus)
- Construct: Cerebral cortices from male Wistar rats (150-200 g) are homogenized
- Sequence (P31652 whole entry): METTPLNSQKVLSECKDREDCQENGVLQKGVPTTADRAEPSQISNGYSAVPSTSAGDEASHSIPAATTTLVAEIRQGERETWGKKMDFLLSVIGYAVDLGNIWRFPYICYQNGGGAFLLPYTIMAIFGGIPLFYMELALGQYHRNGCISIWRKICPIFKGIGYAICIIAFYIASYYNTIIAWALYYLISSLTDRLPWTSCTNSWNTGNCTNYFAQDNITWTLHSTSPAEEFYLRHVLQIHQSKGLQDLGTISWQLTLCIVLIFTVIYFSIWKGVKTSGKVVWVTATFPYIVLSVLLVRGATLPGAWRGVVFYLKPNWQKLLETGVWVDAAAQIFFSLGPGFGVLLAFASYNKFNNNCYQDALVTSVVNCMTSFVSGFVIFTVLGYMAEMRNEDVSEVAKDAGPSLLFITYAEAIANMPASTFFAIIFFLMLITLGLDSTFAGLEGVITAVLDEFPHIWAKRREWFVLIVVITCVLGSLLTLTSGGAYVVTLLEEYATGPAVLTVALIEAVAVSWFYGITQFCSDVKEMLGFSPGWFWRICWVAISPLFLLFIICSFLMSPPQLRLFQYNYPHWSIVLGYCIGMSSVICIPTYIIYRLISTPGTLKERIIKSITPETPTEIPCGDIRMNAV
- measurementProtocol: In vitro inhibition of 3H-5-hydroxytryptamine (3H-5-HT, serotonin) uptake in cortical synaptosomes
reportedProperty: IC50 (nM)
One number for each entry, in nM.

Exercise: What value of measured IC50 is listed for `CN1[C@H]2CC[C@@H]1[C@H](CSc1ccccc1)[C@@H](c1ccc(Cl)c(Cl)c1)C2` ?
Solution: 9.2

====

- testTarget: dopamine transporter (Rattus norvegicus, UniProt P23977)
- Construct: Corpi striati from male Wistar rats (150-200 g) are homogenized; from tissue; host or cells: rat striatal synaptosomes (P2 pellet)
- Sequence (P23977 whole entry): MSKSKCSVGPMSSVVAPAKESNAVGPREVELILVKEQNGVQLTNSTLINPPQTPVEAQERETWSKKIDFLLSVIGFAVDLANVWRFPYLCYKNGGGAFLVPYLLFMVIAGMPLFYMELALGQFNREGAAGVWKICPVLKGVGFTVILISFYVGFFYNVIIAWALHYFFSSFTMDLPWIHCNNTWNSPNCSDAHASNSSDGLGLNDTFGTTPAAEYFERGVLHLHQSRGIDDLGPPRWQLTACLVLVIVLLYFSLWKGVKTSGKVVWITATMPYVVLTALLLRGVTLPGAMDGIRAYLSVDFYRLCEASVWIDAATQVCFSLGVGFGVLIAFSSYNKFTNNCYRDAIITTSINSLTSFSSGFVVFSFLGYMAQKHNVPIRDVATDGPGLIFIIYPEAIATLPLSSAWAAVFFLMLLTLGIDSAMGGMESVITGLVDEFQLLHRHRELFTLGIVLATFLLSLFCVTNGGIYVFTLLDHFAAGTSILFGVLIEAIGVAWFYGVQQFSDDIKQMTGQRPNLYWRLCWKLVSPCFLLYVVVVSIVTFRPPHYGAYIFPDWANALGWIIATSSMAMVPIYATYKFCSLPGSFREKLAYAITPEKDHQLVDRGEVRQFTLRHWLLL
- measurementProtocol: In vitro inhibition of 3H-dopamine (3H-DA) uptake in striatal synaptosomes
- Assay type: biochemical
reportedProperty: IC50 (nM)
Give bare numbers, in nM.

Exercise: What value of measured IC50 is listed for `CN1[C@H]2CC[C@@H]1[C@H](CSc1ccccc1)[C@@H](c1ccc(Cl)c(Cl)c1)C2` ?
Solution: 4.3
